- Tested on: M14
- measurement-notes: NCI tumour cell line growth inhibition, 48 h
Activity calls are given as the source filed them. Rule as the data show it: active = GI50 up to about 1.1 µM and inactive = higher.
Labels: active, inactive

CC/N=C(\N)CSS(=O)(=O)O
inactive
Cc1cc(/N=C/c2c(CO)cnc(C)c2O)c(/N=C/c2c(CO)cnc(C)c2O)cc1C.[Zn+2]
inactive
O=[N+]([O-])C(/C(Cl)=C(/Cl)N1CCOCC1)=C1\NCCO1
inactive
Cc1nc(N)nc(N)c1CCCCc1ccc(N)cc1
inactive
NCc1ccc(C(=O)O)cc1
inactive
O=C(NCCCNCCCCNCCCNC(=O)C(F)(F)F)C(F)(F)F
inactive
O=C1CC(=O)NC(NN2C(=O)CSC2c2ccccc2)=N1 (configuration not stated)
inactive
N#C/C(=C\c1ccc2ccccc2c1)c1ccccc1
inactive
NCCCC(N/C=C1/N=C(c2ccccc2)OC1=O)C(=O)O (configuration not stated)
inactive
Nc1nc(SCc2ccccc2[N+](=O)[O-])c2[nH]cnc2n1
inactive
COC(=O)C(C(=O)C(=O)Nc1ccc(C)cc1C)c1nc2ccc([N+](=O)[O-])cc2nc1O (configuration not stated)
inactive
Cn1c(=O)c2nc3sc4c(n3c2n(C)c1=O)C(=O)c1ccccc1C4=O
inactive
COc1cc2c(cc1OCc1ccccc1)NC(=O)[C@@H]1CCCN1C2=O
inactive
CC(=O)c1[nH]c(Nc2ccc(C)cc2)c(C(=S)Nc2ccccc2)c1N
inactive
COCC1OC(N2C(=O)NC(=O)[C@@H]3C=C4CCCCC4=C[C@@H]32)C(OC)C1OC (some centres not stated)
inactive
O=[N+]([O-])c1ccc(C2=NOC(c3ccccc3F)N2C23CC4CC(CC(C4)C2)C3)cc1 (configuration not stated)
inactive
CN(CC(=O)O)c1ncc2c(n1)-c1ccccc1OC2c1ccccc1 (configuration not stated)
inactive
O=C(O)c1nc2cc(Cl)ccc2[nH]c1=O
inactive
CCN(CC)CCn1c2ccccc2c(=O)c2c(OC)ccc(OC)c21
inactive
Cc1ccc(S(=O)(=O)N/N=C2/C3C(CC2(C)C)C2(C)CCCC3(C)C2O)cc1 (configuration not stated)
inactive
CC(C)(C)C(=O)N(C(=S)OCc1ccccn1)c1ccccc1
inactive
O=C1NC(c2cccc3ccccc23)Nc2ccccc21 (configuration not stated)
active

----------
- System: IGROV-1
- measurement-notes: NCI tumour cell line growth inhibition, 48 h
Active and inactive are the calls of the source. Cut-off read from the data, not from the text of the source: active = GI50 up to about 1.1 µM and inactive = higher.
observable: GI50

COC(=O)c1ccccc1C1CN=NC12Cc1c(C)cccc1C2=O (stereo not given)
> 100 µM (inactive)
C[C@]12CC[C@H](O)C=C1CC[C@@H]1[C@@H]2CC[C@]2(C)C(=N/O)/C(=C/c3ccncc3)C[C@@H]12
14.8 µM (inactive)
CCOC(=O)c1ccc(Nc2nc3ccccc3nc2C(=O)OCC)cc1
> 100 µM (inactive)
Cc1c[nH]c(C(=O)O)c1-c1cccn1-c1ccc(Cl)cc1[N+](=O)[O-]
36.3 µM (inactive)
CC(C)c1cc(C(C)C)c(P2(=O)CC3C(Cl)(Cl)C3(C)C2)c(C(C)C)c1 (stereo not given)
12.1 µM (inactive)

----------
Catalogue of GI50 readings, one per entry.
- Tested on: SF-268
- measurement-notes: NCI tumour cell line growth inhibition, 48 h
Active and inactive are the calls of the source. Rule as the data show it: active = GI50 up to about 1.1 µM and inactive = higher.
observable: GI50

O=C1CC(=O)NC(NN2C(=O)CSC2c2ccccc2)=N1 (stereo unspecified)
> 100 µM (inactive)
N=C(CC(=O)NOC(=O)c1ccccc1)NOC(=O)c1ccccc1
23.2 µM (inactive)
COC(=O)CC1(O)C(/C=C/c2ccccc2)C(C(=O)OC)C(=O)C(C(=O)OC)C1C(=O)OC (stereo unspecified)
> 100 µM (inactive)
FC(F)(F)c1ccc2c(c1)nc1n2C(c2c(Cl)cccc2Cl)SC1 (stereo unspecified)
19.1 µM (inactive)
CC1(CO)COS(=O)OC1 (stereo unspecified)
> 100 µM (inactive)
ClC(/N=N/c1ccccc1)=N/Nc1ccccc1
39.2 µM (inactive)

----------
- Tested on: OVCAR-3
- measurement-notes: NCI tumour cell line growth inhibition, 48 h
Activity calls are given as the source filed them. Rule as the data show it: active = GI50 up to about 1.1 µM and inactive = higher.
observable: GI50

Cc1ccc(/C=C(\NC(=O)c2ccccc2)c2nc3ccccc3[nH]2)cc1
46.9 µM (inactive)
Oc1cccc(-c2nc3ccccc3s2)c1
21.6 µM (inactive)
CCOC(=O)CCC(NC(=O)Cc1ccc(Nc2nc3cc(F)c(F)cc3nc2C(=O)OCC)cc1)C(=O)OCC (centres undefined)
> 100 µM (inactive)
COc1cc([C@@H]2c3cc4c(cc3[C@@H](Nc3ccc(NC(=O)c5cc(NC(=O)c6cc([N+](=O)[O-])cn6C)cn5C)cc3)[C@H]3COC(=O)[C@H]23)OCO4)cc(OC)c1O
> 49.4 µM (inactive)

----------
Catalogue of GI50 readings, one per entry.
- Test system: DMS-273
- measurement-notes: NCI tumour cell line growth inhibition, 48 h
The source made the active and inactive calls. Cut-off read from the data, not from the text of the source: active = GI50 up to about 1.1 µM and inactive = higher.
observable: GI50

Cc1c2c(cc3c1[nH]c1ccccc13)C(c1ccc(Cl)cc1)=NCC2
0.237 µM (active)
O=C1C=C2C(=CCOC2O)O1 (stereo unspecified)
0.881 µM (active)
O=C(/C=C/c1ccc(Cl)c(Cl)c1)c1cccc2ccccc12
4.05 µM (inactive)
N#C/C(=C\c1ccc2ccccc2c1)c1ccccc1
14 µM (inactive)
O=C1C(Br)=C(Br)C(=O)c2ccc(=O)ccc21
48 µM (inactive)
CC1(CO)OC(n2cnc3c(N)ncnc32)C(O)C1O (stereo unspecified)
> 10 µM (inactive)

----------
- System: PC-3
- measurement-notes: NCI tumour cell line growth inhibition, 48 h
The source made the active and inactive calls. Cut-off read from the data, not from the text of the source: active = GI50 up to about 1.1 µM and inactive = higher.
Labels: true (1) (active), false (0) (inactive)

OC(c1ccc2c(c1)OCO2)c1ccc2c(c1)OCO2
false (0)
N[C@]1(C(=O)O)C[C@@H]2C(Br)=NO[C@@H]2C1
false (0)
CCOC(=O)c1cn2c(n1)sc1cc(Cl)cc(Cl)c12
false (0)
O=C1NC(c2cccc3ccccc23)Nc2ccccc21 (configuration not stated)
true (1)
COc1cc2c(cc1OC)C(=O)N(NC1=NCCN1)C2=O
false (0)
Cc1ccc(/C=N/Nc2ccccn2)s1
false (0)
CCCCCCCCOC1C(O)C(O)C(O)C(O)C12CO2 (configuration not stated)
false (0)
CCNC1CC(C(C)(C)NCC)CC=C1C (configuration not stated)
false (0)
N#Cc1c(N2CCN(c3ccc([N+](=O)[O-])cc3)CC2)[n+]([O-])c2ccc(-c3ccc([N+](=O)[O-])cc3)cc2[n+]1[O-]
false (0)
N#Cc1c(-c2ccc(Cl)cc2)c(C#N)c(=O)n(NS(=O)(=O)c2ccccc2)c1O
false (0)
Cc1cccc(-c2nc3ccc([N+](=O)[O-])cc3c(=O)o2)c1
false (0)
CSC1=N/C(=C\c2c[nH]c3ccccc23)C(=O)N1
false (0)
CC/C=C/C[C@H](O)[C@H]1C[C@H]2O[C@H](CC(=O)OC)C[C@H]2O1
false (0)
COc1nc2c(N3CCCC3)nc(N3CCNCC3)nc2nc1NCc1ccccc1
false (0)
CS(=O)(=O)Nc1ccc2ccccc2c1-c1c(NS(C)(=O)=O)ccc2ccccc12
false (0)
CN(C)/C=C/c1ccnc2c1C(=O)c1ccccc1C2=O
false (0)
N/C(=N\c1ccccc1Cl)c1ccccc1N
false (0)
OC1C2CCC3C2CC(C(O)(c2ccccc2)c2ccccc2)C13 (configuration not stated)
false (0)
OC1(CCc2ccccc2)COC(C(F)(F)F)(C(F)(F)F)C1 (configuration not stated)
false (0)
O=C(O[C@@H](/C=C/c1ccccc1)P1(=O)N(Cc2ccccc2)[C@@H]2CCCC[C@H]2N1Cc1ccccc1)c1ccccc1
false (0)
NN=C(S)Nc1cccc(Cl)c1
false (0)
N#CCCN(CCCCN(CCC#N)C(=O)Nc1ccccc1)C(=O)Nc1ccccc1
false (0)

----------
- Tested on: UACC-257
- measurement-notes: NCI tumour cell line growth inhibition, 48 h
Active and inactive are the calls of the source. No stated cut-off is given here; in the data, active = GI50 up to about 1.1 µM and inactive = higher.
Catalogue of GI50 readings, one per entry.
observable: GI50

CC(C)(C)c1cc(/C=C2/NC(=O)NC2=O)cc(C(C)(C)C)c1O
16 µM (inactive)
CN(C)CC(CO)(CN(C)C)CN(C)C
> 100 µM (inactive)
CCCCCCCCOCC1S(=O)(=O)OCCOS1(=O)=O
> 100 µM (inactive)
CCOC(=O)CC[C@H](NC(=O)[C@H](N)Cc1ccc(N(CCCl)CCCl)cc1)C(=O)OCC
11 µM (inactive)
COC(=O)C1CCC(=O)C(Sc2ccccc2)C1 (stereo unspecified)
83.8 µM (inactive)
CC1(C)O/C(=C\c2ccccc2)C(=O)/C(=C/c2ccccc2)O1
22.5 µM (inactive)
N#C/C(N)=C(C#N)/N=C/Nc1ccc(N)cc1
> 100 µM (inactive)
CO/C(=N\N=Cc1ccccc1)c1ccncc1
> 100 µM (inactive)
COc1c(CC(C)O)c2c3c(CC(C)O)c(OC)c(=O)c4c(O)cc5c(c6c(cc(O)c(c1=O)c62)OCO5)c43 (stereo unspecified)
1.34 µM (inactive)
COC(=O)C1=C(C)NC(C)=C([N+](=O)[O-])C1c1cccc(NO)c1 (stereo unspecified)
4.61 µM (inactive)
Cc1ccc(C2(O)c3ccccc3C(=O)N(C)C2(O)c2ccc(C)cc2)cc1 (stereo unspecified)
> 100 µM (inactive)
